Measured values drawn from patent US20210032312A1 for this set.

# subject.of.test: T1, cynomolgus monkey CD8 alpha on primary cynomolgus CD8+ T cells (cynomolgus monkey, UniProt P01732 23-235 (human entry))
# T1 construct: also called Cyno CD8alpha; cyno CD8A
# assay.name: flow cytometry, cyno CD8+ T cells
Recorded measurements of Cyno T-cell Binding 2 uM (MFI), one per entry
metric.name: Cyno T-cell Binding 2 uM (MFI)

| binder | reported |
| --- | --- |
| P283GR7P1367_C9 (designed binder, FN3 domain) LPAPKNLVVSRVTEDSARLSWTAPDAAFDSFLIGYPEWPLGGEAIVLTVPGSERSYDLTGLKPGTEYWVIIYGVKGGEYSDPLSAIFTT | 67000 |
| P283FR9P1366_B7 (designed binder, FN3 domain) LPAPKNLVVSRVTEDSARLSWTAPDAAFDSFWITYPEWPVNGEAIVLTVPGSERSYDLTGLKPGTEYWVVIWGVKGGVESPPLSAIFTT | 51200 |
| P283DR9P1364_E3 (designed binder, FN3 domain) LPAPKNLVVSRVTEDSARLSWTAPDAAFDSFGIAYPELPIGGEAIVLTVPGSERSYDLTGLKPGTEYFVIIRGVKGGTLSPPLSAIFTT | 9130 |
